Test system: downy bromegrass (Bromus tectorum)
Experiment Description: Test B pre-/postemergence plant response
Assay type: in vivo
Condition Details: 31 g ai/ha, postemergence; scale 0 to 100, 0 is no effect, 100 is complete control
Description: […] Treated plants and controls were maintained in a greenhouse for 13 to 15 days, after which time all treated plants were visually evaluated and compared to controls. […]
Measured Plant response rating, Bromegrass, Downy accompanies every entry in the list below.
Assay Readout: Plant response rating, Bromegrass, Downy

                                   molecule                             assay_readout  value_measured
0  O=C1CCCC(O)=C1C(=O)c1cnc(-c2ccsc2)n(-c2ccccc2)c1=O [Compound 56]  Plant response rating, Bromegrass, Downy              35
1  CCCCc1ncc(C(=O)C2=C(O)CCCC2=O)c(=O)n1-c1ccc(C)cc1 [Compound 67]  Plant response rating, Bromegrass, Downy               0
2  Cc1ccccc1-c1ncc(C(=O)C2=C(O)CCCC2=O)c(=O)n1-c1ccccc1 [Compound 82]  Plant response rating, Bromegrass, Downy               0
3  Cc1cc(-n2c(-c3ccccc3)ncc(C(=O)C3=C(O)CCCC3=O)c2=O)ccc1F [Compound 53]  Plant response rating, Bromegrass, Downy              35
4  CCCc1ncc(C(=O)C2=C(O)CCCC2=O)c(=O)n1CC1CCCO1 (stereo not shown) [Compound 74]  Plant response rating, Bromegrass, Downy               0
5  Cc1ccc(-c2ncc(C(=O)C3=C(O)CCCC3=O)c(=O)n2-c2ccccc2)cc1 [Compound 80]  Plant response rating, Bromegrass, Downy              45
6  O=C1CCCC(OC(=O)C2CC2)=C1C(=O)c1cnc(-c2ccccc2)n(-c2ccccc2)c1=O [Compound 88]  Plant response rating, Bromegrass, Downy              40

* * *

System: kochia (Kochia scoparia)
Experiment Description: Test B pre-/postemergence plant response
Assay type: in vivo
Condition Details: Postemergence, 125 g ai/ha; scale 0 to 100 (0 no effect, 100 complete control)
Measured Plant response rating, Kochia accompanies every entry in the list below.
Assay Readout: Plant response rating, Kochia

>>> print(df.to_string())
                                   molecule  value_measured
0  CCCn1c(-c2ccc(F)cc2)ncc(C(=O)C2=C(O)CCCC2=O)c1=O [Compound 102]             100
1  O=C1CCCC(O)=C1C(=O)c1cnc(-c2cccs2)n(C2CCCCC2)c1=O [Compound 189]              98
2  COc1ccc(-n2c(-c3ccccc3)ncc(C(=O)C3=C(O)CCCC3=O)c2=O)cc1OC [Compound 218]             100

* * *

Test system: canarygrass (Phalaris minor)
Experiment Description: Test B postemergence plant response
Format: in vivo
Condition Details: Postemergence, 31 g ai/ha; 0 to 100 scale (0 no effect, 100 complete control)
Assay Readout: Plant response rating, Canarygrass

In [3]: df
Out[3]:
                                   compound                        target  value_measured
0  CC1(C)CC(=O)C(C(=O)c2cnc(-c3ccccc3)n(-c3ccccc3)c2=O)=C(O)C1 [Compound 225]  canarygrass (Phalaris minor)              60
1  COCCCn1c(-c2cccc(F)c2)ncc(C(=O)C2=C(O)C3CCC(C3)C2=O)c1=O (stereo not drawn) [Compound 238]  canarygrass (Phalaris minor)              20
2  COCCn1c(-c2ccsc2)ncc(C(=O)C2=C(O)C3CCC(C3)C2=O)c1=O (stereo not drawn) [Compound 228]  canarygrass (Phalaris minor)               0
3  CCCCn1c(-c2cccc(Cl)c2)ncc(C(=O)C2=C(O)CCCC2=O)c1=O [Compound 146]  canarygrass (Phalaris minor)               0
4  CCCn1c(-c2ccsc2)ncc(C(=O)C2=C(O)C3CCC(C3)C2=O)c1=O (stereo not drawn) [Compound 227]  canarygrass (Phalaris minor)               0
5  O=C1CCCC(O)=C1C(=O)c1cnc(-c2ccccc2)n(C2CCCC2)c1=O [Compound 131]  canarygrass (Phalaris minor)               0
6  COc1ccc(-n2c(-c3ccccc3)ncc(C(=O)C3=C(O)CCCC3=O)c2=O)cc1OC [Compound 218]  canarygrass (Phalaris minor)               0
7  CCCn1c(-c2cccc(Cl)c2)ncc(C(=O)C2=C(O)CCCC2=O)c1=O [Compound 190]  canarygrass (Phalaris minor)               0
8  Cc1ccc(F)cc1-n1c(-c2cccc(Cl)c2)ncc(C(=O)C2=C(O)CCCC2=O)c1=O [Compound 157]  canarygrass (Phalaris minor)              40

* * *

Test system: corn (Zea mays)
Experiment Description: Test B pre-/postemergence plant response
Type: in vivo
Condition Details: Postemergence, 250 g ai/ha; scale 0 to 100 (0 no effect, 100 complete control); 13 to 15 days
Plant response rating, Corn below 80 gives label 0; Plant response rating, Corn at or above it gives label 1.

In [3]: df
Out[3]:
                                   compound  answer_label
0  CCCCn1c(-c2cccc(F)c2)ncc(C(=O)C2=C(O)C3CCC(C3)C2=O)c1=O (stereo not shown)       label 1
1  O=C(C1=C(O)C2CCC(C2)C1=O)c1cnc(-c2ccsc2)n(CC2CCCO2)c1=O (stereo not shown)       label 1
2  Cc1ccc(Cl)cc1-n1c(-c2cccc(F)c2)ncc(C(=O)C2=C(O)CCCC2=O)c1=O       label 1
3  CCCCn1c(-c2cccc(Cl)c2)ncc(C(=O)C2=C(O)CCCC2=O)c1=O       label 0
4  COCCn1c(-c2cccc(F)c2)ncc(C(=O)C2=C(O)C3CCC(C3)C2=O)c1=O (stereo not shown)       label 1
5  COCCn1c(-c2cccc(C)c2)ncc(C(=O)C2=C(O)C3CCC(C3)C2=O)c1=O (stereo not shown)       label 1
6  O=C1CCCC(O)=C1C(=O)c1cnc(-c2cc(F)cc(F)c2)n(C2CCCCC2)c1=O       label 1
7  CCCn1c(-c2cccc(C(F)(F)F)c2)ncc(C(=O)C2=C(O)CCCC2=O)c1=O       label 0
8  CCCn1c(-c2ccsc2)ncc(C(=O)C2=C(O)C3CCC(C3)C2=O)c1=O (stereo not shown)       label 1
9  COCCCn1c(-c2cccc(F)c2)ncc(C(=O)C2=C(O)C3CCC(C3)C2=O)c1=O (stereo not shown)       label 1

* * *

Tested on: johnsongrass (Sorghum halepense)
Experiment Description: Test B pre-/postemergence plant response
Assay type: in vivo
Condition Details: 62 g ai/ha, postemergence; 0 is no effect, 100 is complete control; 13 to 15 days
Assay Readout: Johnsongrass plant response rating (0 to 100 scale)

>>> print(df.to_string())
                                smiles_input  value_measured
 0  COCCn1c(-c2ccccc2)ncc(C(=O)C2=C(O)CCCC2=O)c1=O              95
 1  CCCCc1ncc(C(=O)C2=C(O)CCCC2=O)c(=O)n1-c1ccc(C)cc1               0
 2  Cc1ccc(-c2ncc(C(=O)C3=C(O)CCCC3=O)c(=O)n2-c2ccccc2)cc1               0
 3  O=C1CCCC(OC(=O)C2CC2)=C1C(=O)c1cnc(-c2ccccc2)n(-c2ccccc2)c1=O             100
 4  CCCCCn1c(-c2ccccc2)ncc(C(=O)C2=C(O)CCCC2=O)c1=O              90
 5  CCCn1c(-c2cc(F)cc(F)c2)ncc(C(=O)C2=C(O)CCCC2=O)c1=O              90
 6  CCCCn1c(-c2ccccc2)ncc(C(=O)C2=C(O)CCCC2=O)c1=O              98
 7  CCCn1c(-c2ccc(F)cc2)ncc(C(=O)C2=C(O)CCCC2=O)c1=O              25
 8  COCCCn1c(-c2cccc(Br)c2)ncc(C(=O)C2=C(O)CCCC2=O)c1=O              15
 9  CCCn1c(-c2cccc(Br)c2)ncc(C(=O)C2=C(O)CCCC2=O)c1=O              15
10  COCCn1c(-c2cccc(Cl)c2)ncc(C(=O)C2=C(O)CCCC2=O)c1=O              40

* * *

Test system: yellow nutsedge (Cyperus esculentus)
Experiment Description: Test B pre-/postemergence plant response
Format: in vivo
Condition Details: 62 g ai/ha, postemergence; 0 is no effect, 100 is complete control; 13 to 15 days
Assay Readout: Nutsedge, Yellow plant response rating (0 to 100 scale)

>>> df
                                    compound  value_measured
 0  CCCCCn1c(-c2ccccc2)ncc(C(=O)C2=C(O)CCCC2=O)c1=O [Compound 89]              55
 1  COCCn1c(-c2cccc(C)c2)ncc(C(=O)C2=C(O)CCCC2=O)c1=O [Compound 117]               0
 2  CCCn1c(-c2cc(F)cc(F)c2)ncc(C(=O)C2=C(O)CCCC2=O)c1=O [Compound 152]              75
 3  CCCCn1c(-c2cccc(Cl)c2)ncc(C(=O)C2=C(O)CCCC2=O)c1=O [Compound 146]              10
 4  COCC(C)n1c(-c2ccccc2)ncc(C(=O)C2=C(O)CCCC2=O)c1=O (centres unmarked) [Compound 107]              75
 5  COCCn1c(-c2cc(F)cc(F)c2)ncc(C(=O)C2=C(O)CCCC2=O)c1=O [Compound 119]              50
 6  COCCn1c(-c2cccc(Cl)c2)ncc(C(=O)C2=C(O)CCCC2=O)c1=O [Compound 147]              60
 7  CCCn1c(-c2ccc(F)cc2)ncc(C(=O)C2=C(O)CCCC2=O)c1=O [Compound 102]              65
 8  CCCc1ncc(C(=O)C2=C(O)CCCC2=O)c(=O)n1-c1ccccc1C [Compound 73]              20
 9  O=C1CCCC(OC(=O)C2CC2)=C1C(=O)c1cnc(-c2ccccc2)n(-c2ccccc2)c1=O [Compound 88]              65
10  CCCCn1c(-c2ccccc2)ncc(C(=O)C2=C(O)CCCC2=O)c1=O [Compound 86]              70
